tested on: NCI-H358(KRAS^G12C mutation) cells; experiment: Cell assay of antiproliferative activity (Celltiter-Glo, 5 days) against NCI-H358 cells; type: cell-based; settings: Homo sapiens, NCI-H358, 120 h, 5 days incubation
measuredAttribute: IC50

Here are 2 molecules together with their reported answers.
| molecule | measValue |
| --- | --- |
| C=C(F)C(=O)N1CCN(c2nc(OCCN(C)C34CC(C3)C4)nc3c2CCN(c2cccc4cccc(Cl)c24)C3)C[C@@H]1CC#N [Example 55] | 870 nM |
| [2H]C([2H])([2H])N(CC1(COc2nc3c(c(N4CCN(C(=O)C(=C)F)[C@@H](CC#N)C4)n2)CCN(c2cccc4ccc(F)c(Cl)c24)C3)CC1)C([2H])([2H])[2H] [Example 63] | 7 nM |

Please look at the following molecule next.
What value of IC50 on NCI-H358(KRAS^G12C mutation) cells does C=C(F)C(=O)N1CCN(c2nc(OCC3(CN4CC(F)(F)C4)CC3)nc3c2CCN(c2cccc4ccc(F)c(Cl)c24)C3)C[C@@H]1CC#N [Example 59] have? 810 nM

----------
tested on: NCI-H358(KRAS^G12C mutation) cells; assay: Cell assay of antiproliferative activity (Celltiter-Glo, 5 days) against NCI-H358 cells; format: cell-based; conditions: Homo sapiens, NCI-H358, 120 h, 5 days incubation
pIC50: −log10 of the molar value.
Param threshold (7) applies to pIC50; output Condition met when value >= threshold, Condition not met when value < threshold.

Use the examples below as a reference point.
| molecule | assignedLabel |
| --- | --- |
| C=CC(=O)N1CCN(c2nc(OCC3(CN(C)C)CC3)nc3c2CCN(c2cccc4cccc(Cl)c24)C3)CC1CC#N (stereo not shown) | Condition met |
| C=CC(=O)N1CCN(c2nc(OCC3(N(C)C)CC3)nc3c2CCN(c2cccc4cccc(Cl)c24)C3)CC1CC#N (stereo not shown) | Condition met |
| C=CC(=O)N1CCN(c2nc(OCCN(C)[C@H](C)C3CC3)nc3c2CCN(c2cccc4cccc(C)c24)C3)CC1CC#N (stereo partly shown) | Condition met |

State whether the measured pIC50 reaches 7, counting equality as reaching it, for C=C(F)C(=O)N1CCN(c2nc(OCC3(CN(C)CC)CC3)nc3c2CCN(c2cccc4ccc(F)c(Cl)c24)C3)C[C@@H]1CC#N Condition met

Assess whether reported pIC50 for C=CC(=O)N1CC2CCC1CN2c1nc(OCC2(CN(C)C)CC2)nc2c1CCN(c1cccc3cccc(Cl)c13)C2 (stereo not shown) sits at 7 or higher. Condition not met

----------
tested on: NCI-H358(KRAS^G12C mutation) cells; assay: Cell assay of antiproliferative activity (Celltiter-Glo, 5 days) against NCI-H358 cells; type: cell-based; details: Homo sapiens, NCI-H358, 120 h, 5 days incubation
Reported pIC50 values follow for various molecules
The value called pIC50 is obtained by taking minus log10 of the concentration in mol/L.

| molecule | experimentalTarget | pIC50 |
| --- | --- | --- |
| C=CC(=O)N1CC2CC1CN2c1nc(OCC2(CN(C)C)CC2)nc2c1CCN(c1cccc3cccc(Cl)c13)C2 (stereo not drawn) | NCI-H358(KRAS^G12C mutation) cells | 5.26 |
| C=C(F)C(=O)N1CCN(c2nc(OCCN(C)C3CCC3)nc3c2CCN(c2cccc4cccc(Cl)c24)C3)CC1CC#N (stereo not drawn) | NCI-H358(KRAS^G12C mutation) cells | 6.96 |
| C=CC(=O)N1CCN(c2nc(OC[C@@H](C)N(C)C3CC3)nc3c2CCN(c2cccc4cccc(C)c24)C3)CC1CC#N (stereo partly drawn) | NCI-H358(KRAS^G12C mutation) cells | 6.74 |

Which measured pIC50 value corresponds to C=CC(=O)N1CCN(c2nc(OCC3(CN(C)C)CC3)nc3c2CCN(c2cccc4cccc(Cl)c24)C3)[C@@H](C)C1 ? 6.52

For the molecule shown here, [2H]C([2H])([2H])N(CC1(COc2nc3c(c(N4CCN(C(=O)C(=C)F)[C@@H](CC#N)C4)n2)CCN(c2cccc4cccc(Cl)c24)C3)CC1)C([2H])([2H])[2H] , give the reported pIC50. 7.31

Reported pIC50 for C=CC(=O)N1CCN(c2nc(O[C@@H]3CCC[C@@H]3N(C)C)nc3c2CCN(c2cccc4cccc(Cl)c24)C3)CC1CC#N (stereo partly drawn) : what is it? 7.05

----------
This section presents molecules with their documented IC50 values.
test system: NCI-H358(KRAS^G12C mutation) cells; experiment: Cell assay of antiproliferative activity (Celltiter-Glo, 5 days) against NCI-H358 cells; assay type: cell-based; settings: Homo sapiens, NCI-H358, 120 h, 5 days incubation
All answers are understood in nM, so give the number only.

Here is how some molecules turned out for IC50.
| molecule | measValue |
| --- | --- |
| C=C(F)C(=O)N1CCN(c2nc(OCC3(CN(C)CC)CC3)nc3c2CCN(c2cccc4cccc(Cl)c24)C3)C[C@@H]1CC#N | 47 |
| C=CC(=O)N1CCN(c2nc(OCCN(C)C3CC3)nc3c2CCN(c2cccc4cccc(C)c24)C3)CC1CC#N (stereo not shown) | 170 |

Tell me reported IC50 for C=CC(=O)N1CCN(c2nc(OCCN(C)CC3CCC3)nc3c2CCN(c2cccc4cccc(C)c24)C3)CC1CC#N (stereo not shown) , tested with NCI-H358(KRAS^G12C mutation) cells. 160

Observed IC50 on NCI-H358(KRAS^G12C mutation) cells for C=CC(=O)N1CC2(CCN(c3nc(OCC4(CN(C)C)CC4)nc4c3CCN(c3cccc5cccc(Cl)c35)C4)C2)C1 , please. 3300

----------
Test system: NCI-H358(KRAS^G12C mutation) cells
Assay: Cell assay of antiproliferative activity (Celltiter-Glo, 5 days) against NCI-H358 cells
Format: cell-based
Details: Homo sapiens, NCI-H358, 120 h, 5 days incubation
Procedure: Cell assay of antiproliferative activity of compounds against NCI-H358(KRAS^G12C mutation) and A549(KRAS^G12S mutation) cells. […] 20 μL of Promega Celltiter-Glo reagent was added to each well of the microplate, and then the luminescence signal was stabilized by oscillating at room temperature for 10 min. Then PekinElmer Envision multi-label analyzer was used to read. […]
pIC50: −log10 of the molar value.
Threshold rule: pIC50 greater than or equal to 7 is criterion met; below that, criterion not met.

| compound | experimentalTarget | assignedLabel |
| --- | --- | --- |
| C=C(F)C(=O)N1CCN(c2nc(OCC3(CN(C)C)CC3)nc3c2CCN(c2c(C)ccc4[nH]ncc24)C3)C[C@@H]1CC#N [Example 35] | NCI-H358(KRAS^G12C mutation) cells | criterion not met |

Does the compound C=CC(=O)N1CCN(c2nc(OCCN(CC(F)(F)F)C3CCC3)nc3c2CCN(c2cccc4cccc(Cl)c24)C3)CC1CC#N (centres unmarked) [Example 10] have recorded pIC50 that is 7 or more? criterion not met

Tell me whether pIC50 is at least 7 here: C=CC(=O)N1CCN(c2nc(OCCN(C)CC3CC3)nc3c2CCN(c2cccc(F)c2C(F)(F)F)C3)CC1 [Example 95] criterion not met

Is it the case that C=C(F)C(=O)N1CCN(c2nc(OCC3(COC)CN(C)C3)nc3c2CCN(c2cccc4cccc(Cl)c24)C3)C[C@@H]1CC#N [Example 46] has pIC50 reaching or exceeding 7? criterion met

Identify whether the reported pIC50 of the following compound is 7 or greater: C=CC(=O)N1CCN(c2nc(OCCN(C)C3CCC3)nc3c2CCN(c2cccc4cccc(C)c24)C3)CC1CC#N (centres unmarked) [Example 81] criterion met

Reported pIC50 reaches at least 7 for C=C(F)C(=O)N1CCN(c2nc(OCC3(CN(C)C)CC3)nc3c2CCN(c2cccc4cccc(Cl)c24)C3)CC1CC#N (centres unmarked) [Example 13] ? criterion met

Determine whether this compound has pIC50 no lower than 7: C=CC(=O)N1CC2CN(c3nc(OCC4(CN(C)C)CC4)nc4c3CCN(c3cccc5cccc(Cl)c35)C4)CC2C1 (centres unmarked) [Example 38] criterion not met

Evaluate C=CC(=O)N1CCN(c2nc(OC[C@@H](COC)N(C)C3CCC3)nc3c2CCN(c2cccc4cccc(C)c24)C3)CC1CC#N (some centres unmarked) [Example 1] : pIC50 at minimum 7? criterion not met

Could you tell me if the measured pIC50 of C=C(F)C(=O)N1CCN(c2nc(OCC3(CN(C)C)CC3)nc3c2CCN(c2cccc4ccc(F)c(Cl)c24)C3)C[C@@H]1CC#N [Example 28] reaches 7 or more? criterion met

Record C=CC(=O)N1CC2(C1)CN(c1nc(OCC3(CN(C)C)CC3)nc3c1CCN(c1cccc4cccc(Cl)c14)C3)C2 [Example 40] ; criterion: pIC50 no lower than 7. Met? criterion not met
